- System Name: UniProt:O42275
- Sequence (O42275 24-633): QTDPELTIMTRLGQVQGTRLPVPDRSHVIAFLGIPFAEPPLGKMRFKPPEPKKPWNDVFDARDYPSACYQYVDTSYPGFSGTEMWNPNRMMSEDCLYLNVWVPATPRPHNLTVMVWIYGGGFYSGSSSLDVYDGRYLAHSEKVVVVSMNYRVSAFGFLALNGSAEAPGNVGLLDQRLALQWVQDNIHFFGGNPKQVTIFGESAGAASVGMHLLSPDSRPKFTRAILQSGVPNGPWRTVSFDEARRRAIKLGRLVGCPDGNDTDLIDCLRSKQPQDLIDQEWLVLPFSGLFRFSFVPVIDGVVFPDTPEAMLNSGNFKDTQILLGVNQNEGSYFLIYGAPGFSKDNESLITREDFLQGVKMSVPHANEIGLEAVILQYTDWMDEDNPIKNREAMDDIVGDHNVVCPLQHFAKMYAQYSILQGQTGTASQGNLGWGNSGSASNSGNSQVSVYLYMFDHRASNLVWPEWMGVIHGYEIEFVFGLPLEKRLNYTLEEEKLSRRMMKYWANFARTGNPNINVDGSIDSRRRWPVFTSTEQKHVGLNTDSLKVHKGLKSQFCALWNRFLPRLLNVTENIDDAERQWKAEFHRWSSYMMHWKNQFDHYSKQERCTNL
- Protocol: biochemical
- Type: biochemical
Endpoint: Selectivity AChE/BuChE

| Molecule | System Name | Selectivity AChE/BuChE |
| --- | --- | --- |
| [H]/N=C(\N)NN=Cc1ccc(Cl)cc1 [Compound 1d] | UniProt:O42275 | 3.25 |
| NNC(N)=O [semicarbazide, reference compound] | UniProt:O42275 | 0.13 |
| NC(=O)N/N=C/c1ccc([N+](=O)[O-])o1 [Compound 3d] | UniProt:O42275 | <0.07 |
| NC(=O)N/N=C/c1cc(I)cc(I)c1O [Compound 2h] | UniProt:O42275 | 0.88 |
| [H]/N=C(\N)NN=Cc1cc(Cl)cc(I)c1O [Compound 1l] | UniProt:O42275 | 4.08 |
| N=C(NN)NN [1,3-diaminoguanidine, reference compound] | UniProt:O42275 | 0.15 |
| N=C(N/N=C/c1ccc([N+](=O)[O-])o1)N/N=C/c1ccc([N+](=O)[O-])o1 [Compound 3c] | UniProt:O42275 | <0.08 |
| N=C(N)NN [aminoguanidine, hydrazinecarboximidamide, reference compound] | UniProt:O42275 | 0.23 |
| [H]/N=C(\N)NN=Cc1ccc(Cl)cc1O [Compound 1f] | UniProt:O42275 | 1.40 |

Could you now consider this next molecule?
Q. Fill in: Selectivity AChE/BuChE on UniProt:O42275, entry NNC(N)=S [thiosemicarbazide, reference compound]
A. 0.14
